Numbers sourced from patent EP0114002B1.

# Tested on: L1210 cells
# protocol details: L1210 murine leukemia cell growth inhibition in vitro
# Format: cell-based
# particulars: Mus musculus, 72 h, Table 2, three days incubation, read-out: L1210 in vitro IC50
measured quantity: pIC50
Keep in mind that pIC50 stands for -log10 of concentration in molar terms.

{"compound": "CCN(CC)CCn1nc2c3c(c(NCCN4CCOC4=O)ccc31)Sc1ccc(O)cc1-2 [CH2CH2N(C2H5)2 / [drawing] / 9-OH]", "pIC50": 8.26}

Suppose we examine the compound `CCN(CC)CCn1nc2c3c(c([N+](=O)[O-])ccc31)Sc1ccc(OC)cc1-2` ; what pIC50 value has been reported?
6.19

Suppose we examine the compound `CCN(CC)CCn1nc2c3c(c(N)ccc31)Sc1ccc(OC)cc1-2` ; what pIC50 value has been reported?
5.80

Suppose we examine the compound `CCN(CC)CCn1nc2c3c(c([N+](=O)[O-])ccc31)Sc1c(OC)ccc(O)c1-2` ; what pIC50 value has been reported?
6.00

Suppose we examine the compound `CCN(CC)CCn1nc2c3c(c([N+](=O)[O-])ccc31)Sc1c(O)ccc(O)c1-2` ; what pIC50 value has been reported?
5.77

Suppose we examine the compound `CCN(CC)CCn1nc2c3c(c(NCCNCCO)ccc31)Sc1ccc(OC)cc1-2` ; what pIC50 value has been reported?
6.70

Suppose we examine the compound `CCN(CC)CCn1nc2c3c(c([N+](=O)[O-])ccc31)Sc1c(OC)ccc(OC)c1-2` ; what pIC50 value has been reported?
5.89

Suppose we examine the compound `CCN(CC)CCn1nc2c3c(c(N)ccc31)Sc1ccc(O)cc1-2` ; what pIC50 value has been reported?
7.92

Suppose we examine the compound `CCN(CC)CCn1nc2c3c(c(NCCN)ccc31)Sc1ccc(OC)cc1-2` ; what pIC50 value has been reported?
6.68

###

# Test system: Bacillus subtilis 04555
# protocol details: in vitro antibacterial/antifungal (ABF) agar-disk diffusion test
# Assay type: cell-based
# particulars: 3 mg/ml, read-out: ABF Zone Diameter (cont. in mg/ml) B. Sub-tilis
In this section we review reported zone of inhibition at 3000 µg/mL values for a set of compounds.
The response must be a number in mm with no trailing unit.

{"smiles input": "CCN(CC)CCn1nc2c3c(c(NCCN4CCOC4=O)ccc31)Sc1ccccc1-2", "unit": "mm", "zone of inhibition at 3000 µg/mL": 13}
{"smiles input": "CCN(CC)CCn1nc2c3c(c(N)ccc31)Sc1c(O)ccc(O)c1-2", "unit": "mm", "zone of inhibition at 3000 µg/mL": 0}

Suppose we examine the compound `CN(C)CCCn1nc2c3c(c(N)ccc31)Sc1ccccc1-2` ; what zone of inhibition at 3000 µg/mL value has been reported?
0

Suppose we examine the compound `CN(C)CCn1nc2c3c(c([N+](=O)[O-])ccc31)Sc1ccccc1-2` ; what zone of inhibition at 3000 µg/mL value has been reported?
15

Suppose we examine the compound `CCN(CC)CCn1nc2c3c(c(N)ccc31)Sc1ccccc1-2` ; what zone of inhibition at 3000 µg/mL value has been reported?
0

Suppose we examine the compound `CCN(CC)CCn1nc2c3c(c(NCCNCCO)ccc31)Sc1c(O)ccc(O)c1-2` ; what zone of inhibition at 3000 µg/mL value has been reported?
0

Suppose we examine the compound `CCN(CC)CCn1nc2c3c(c([N+](=O)[O-])ccc31)Sc1ccccc1-2` ; what zone of inhibition at 3000 µg/mL value has been reported?
14
